System: Staphylococcus aureus
test_details: Antibacterial activity against Staphylococcus aureus ATCC 9144 at 100 ug/ml by agar cup-plate method
Type: functional
reported_conditions: read-out: IZ
# class assignment by measured zone of inhibition at 100 µg/mL: c1 = under 9 mm, c2 = from 9 mm up to 20 mm, c3 = 20 mm and over

Example results:
{"columns": ["compound", "label_class"],
 "data": [
  ["O=c1c2cc(I)ccc2nc(Cc2ccccc2Nc2ccccc2)n1NC1=NNC(c2cccc(Cl)c2)C1 (centres undefined)", "c1"],
  ["O=c1c2cc(I)ccc2nc(Cc2ccccc2Nc2ccccc2)n1NC1=NNC(c2ccccc2Cl)C1 (centres undefined)", "c1"]
]}

Returns: class label. Input: O=c1c2cc(I)ccc2nc(Cc2ccccc2Nc2ccccc2)n1NC1=NNC(c2ccc(Cl)cc2)C1 (centres undefined)
c1

Returns: class label. Input: O=c1c2cc(I)ccc2nc(Cc2ccccc2Nc2ccccc2)n1NC1=NNC(c2ccc([N+](=O)[O-])cc2)C1 (centres undefined)
c2

Returns: class label. Input: O=c1c2cc(I)ccc2nc(Cc2ccccc2Nc2ccccc2)n1NC1=NNC(c2cccc([N+](=O)[O-])c2)C1 (centres undefined)
c2

Data origin: ChEMBL document CHEMBL3045169
